molecular target: human mPGES-1 (Homo sapiens, UniProt O14684); construct: made in house; host or cells: COS-1 cells (transient transfection; microsomal fraction used as enzyme); assay: Test for mPGES-1 inhibitory activity (microsomal enzyme, PGE2 EIA); assay type: biochemical; conditions: microsomes from COS-1 cells transfected with human mPGES-1 cDNA; substrate PGH2 1 μM; 4° C., 4 minutes; PGE2 measured by EIA; read-out: h mPGES1 IC50
Sequence (O14684 whole entry): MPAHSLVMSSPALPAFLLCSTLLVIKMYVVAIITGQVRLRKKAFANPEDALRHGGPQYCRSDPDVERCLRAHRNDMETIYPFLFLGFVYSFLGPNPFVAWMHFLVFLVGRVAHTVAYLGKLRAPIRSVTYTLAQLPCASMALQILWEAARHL
I'd appreciate it if you could supply pIC50 values for the items below.
As a rule, pIC50 stands for the negative log10 of the concentration, concentration in M.

Enter pIC50 (test system human mPGES-1 (Homo sapiens, UniProt O14684)) for CCc1nc(-c2c(C(F)(F)F)ccc(CNC(=O)[C@H]3CC[C@H](OCc4ccc(F)c(F)c4)CC3)c2F)[nH]c(=O)c1F [Example 133]
7.57

Enter measured pIC50, system human mPGES-1 (Homo sapiens, UniProt O14684), for the molecule shown: Cc1cccc(N2CCC(C(=O)NCc3ccc(C(F)(F)F)c(-c4nc(C(F)(F)F)cc(=O)[nH]4)c3F)CC2)c1 [Example 59]
8.38

Supply pIC50 measured with human mPGES-1 (Homo sapiens, UniProt O14684) for Cc1cc(=O)[nH]c(-c2c(C(F)(F)F)ccc(CNC(=O)C3CCN(c4ccc(OC(F)(F)F)cc4)CC3)c2F)n1 [Example 87] .
7.41

// output pIC50; input O=C(NCc1ccc(C(F)(F)F)c(-c2nc(C(F)(F)F)cc(=O)[nH]2)c1F)C1CCN(c2cnc(C(F)(F)F)cn2)CC1 [Example 36] ; system human mPGES-1 (Homo sapiens, UniProt O14684)
7.85

Param request: pIC50 | system human mPGES-1 (Homo sapiens, UniProt O14684) | item Cc1cc(=O)[nH]c(-c2c(C(F)(F)F)ccc(CNC(=O)[C@H]3CC[C@H](OCc4ccc(Cl)cc4)CC3)c2F)n1 [Example 105]
7.64

Provide human mPGES-1 (Homo sapiens, UniProt O14684) pIC50 reading for O=C(NCc1ccc(C(F)(F)F)c(-c2nc(C(F)(F)F)cc(=O)[nH]2)c1F)C1CCN(c2ccc(OC(F)F)cc2)CC1 [Example 71] .
8.00

---

Would you mind telling me the reported IC50 of each entry?
target: human mPGES-1 (Homo sapiens, UniProt O14684); construct: made in house; host or cells: COS-1 cells (transient transfection; microsomal fraction used as enzyme); assay: Test for mPGES-1 inhibitory activity (microsomal enzyme, PGE2 EIA); assay type: biochemical; settings: microsomes of COS-1 cells transfected with human mPGES-1 cDNA; PGH2 1 μM; 4° C., 4 minutes; PGE2 by EIA; read-out: h mPGES1 IC50

Give IC50 only, for `Cc1cc(=O)[nH]c(-c2c(C(F)(F)F)ccc(CNC(=O)[C@H]3C[C@H](OCc4cccc(Cl)c4F)C3)c2F)n1` , using human mPGES-1 (Homo sapiens, UniProt O14684) data.
< 1 nM

Give IC50 for `CCc1cc(=O)[nH]c(-c2c(C(F)(F)F)ccc(CNC(=O)[C@H]3C[C@H](OCc4cc(F)cc(F)c4)C3)c2F)n1` tested on human mPGES-1 (Homo sapiens, UniProt O14684).
13 nM

Write down the reported IC50 (system: human mPGES-1 (Homo sapiens, UniProt O14684)) of O=C(NCc1ccc(C(F)(F)F)c(-c2nc(-c3ccc(C(F)(F)F)cn3)cc(=O)[nH]2)c1F)C1CC(OCc2ccccc2)C1 (stereo not drawn)
< 1 nM
